molecular target: pooled human IgG (human IgG1, 2, 3 and 4)
Measurement name: Enzyme Activity Endpoint Assay (purified): IgG (ng/µL)
Reply with just the number (in ng/µL).

PRT-625 (protein) MQITSVWTKGVTPLTPEQFRYNNEDVIHAPYLAHQGWYDITKAFDGKDNLLCGAATAGNMLHWWFDQNKTEIEAYLSKHPEKQKIIFNNQELFDLKAAIDTKDSQTNSQLFNYFRDKAFPNLSARQLGVMPDLVLDMFINGYYLNVFKTQSTDVNRPEDDKDKRGGIFDHVFTRGDQSTLLTARHDLKNKGLNDISTIIKQELTEGRALALSHTYANVSISHVINLWGADFNAEGNLEAIYVTDSDANASIGMKKYFVGINAHGHVAISAKKIEGENIGAQVLGLFTLSSGKDIWQKLSLEHHHHHH :: 78
PRT-404 (protein) MVTSVWTKGVTPPADFTQGEDVFHAPYVANQGWYDITKTFNGKDDLLCGAATAGNMLHWWFDQNKEYIEAYLKKHPEKQKIMFGDQELLDVRKAINTKGSQKNSELFNYFRDKAFPNLSARRLGVMPDLVLDMFINGYYLNVTKTQTTDVNRTYQEKDKRGGIFDAVFTRGDQSKLLTSRHDFKEKGLKEISDLIKQELTEGKALGLSHTYANVRIGHVINLWGADFDSDGNLKAIYVTDSDSNASIGMKKYFVGVNSAGKVAISAKEIKEDNIGAQVLGLFTLSTGQDIWNQTN :: 1580
PRT-391 (protein) MVTSVWTKGVTPPTNFTYGEDVLHAPYVANQGWYDITKTFNGKDDLLCGAATAGNMLHWWFDQNKEQIENYLKKHPEKQKINFNGEQMFDVKEAIDTKDSQLDSKLFEYFKEKAFPYLSTKHLGVFPDHVIDMFINGYRLSLTNHGPTPVKRGSKDKRGGIFDAVFTRGDQSKLLTNRHDFKEKTLKEISDLIKQELTEGKALGISHTYANVRINHVINLWGADFDAEGNLEAIYVTDSDSNASIGMKKYFVGVNSNGKVAISAKEIEEDNIGAQVLGLFTLSTGQDIWNQTN :: 29

Identify measured Enzyme Activity Endpoint Assay (purified): IgG associated with PRT-623 (protein) MQITTVWTKGVTPLTPEQFRYNNEDVIHAPYLAHQGWYDITKAFDGKDNLLCGAATAGNMLHWWFDQNKTEIEAYLSKHPEKQKIIFNNQELFDLKAAIDTKDSQTNSQLFNYFRDKAFPNLSARQLGVMPDLVLDMFINGYYLNVFKTQSTDVNRPYQDKDKRGGIFDAVFTRGDQTTLLTARHDLKNGTLNEISQIIKQELQSGRALALSHTYANVSISHVINLWGADFNAEGNLIAIYVTDSDANASIGMKKYFVGINAHGHVAISAKKIEGENIGAQVLGLFTLSSGKDIWQKLSLEHHHHHH
0
